system: zig-zag strips of the tracheae (passively sensitized guinea pigs); experiment: Effects on passive Schultz-Dale reaction (broncho-dilatory effects); assay type: cell-based, guinea pig (male Hartley); details: Cavia porcellus; guinea pig trachea contracted with antigen EWA 1 μg/ml, 37° C., cumulative concentration-relaxation curves; read-out: Passive Schultz-Dale reaction (IC50), concentration of 50% relaxation rate
Where a name gives a salt, the structure may show the parent alone.
A collection of compounds and their measured IC50

Cn1c(=O)c2[nH]cnc2n(C)c1=O [Aminophylline, reference compound] = 23 µM
CCCCn1c(=O)c2c(ncn2CC(=O)O)c2ccccc21 = 6.7 µM
CCCCn1c(=O)c2c(ncn2C(C)C)c2ccccc21 [Compound 4, hydrochloride] = 3.7 µM
CCCCn1c(=O)c2c(ncn2CCC)c2ccccc21.Cl [Compound 3, hydrochloride] = 6.8 µM
CCCCn1c(=O)c2c(ncn2CC(=O)OC(C)(C)C)c2ccccc21 = 0.47 µM

Challenge: State IC50 on zig-zag strips of the tracheae (passively sensitized guinea pigs). Entry: CCn1c(=O)c2c(ncn2C)c2ccccc21
Response given: 1.3 µM

Challenge: Give the observed IC50 of CCCCn1c(=O)c2c(ncn2C)c2ccccc21 for zig-zag strips of the tracheae (passively sensitized guinea pigs).
Response given: 6.7 µM

Challenge: Answer briefly: IC50 recorded on zig-zag strips of the tracheae (passively sensitized guinea pigs) for CCCCn1c(=O)c2c(ncn2CC(C)=O)c2ccccc21
Response given: 7.9 µM

Challenge: # return IC50 of CCCCn1c(=O)c2c(ncn2CC)c2ccccc21.Cl [Compound 2, hydrochloride] (system: zig-zag strips of the tracheae (passively sensitized guinea pigs))
Response given: 2 µM

* * *

assay: Acute toxicity; details: mouse, in vivo; male dd-mice, po, mortality for seven days
Where a name gives a salt, the structure may show the parent alone.
metric_name: LD50 at 168 h

CCCCn1cnc2c3ccccc3n(CCCC)c(=O)c21 [Compound 5, hydrochloride] = > 300 mg/kg
CCCCn1c(=O)c2c(ncn2CC)c2ccccc21.Cl = > 300 mg/kg
CCCCn1c(=O)c2c(ncn2C)c2ccccc21 = > 200 mg/kg
CCCCn1c(=O)c2c(ncn2CC(C)=O)c2ccccc21 = > 300 mg/kg

Challenge: Identify measured LD50 at 168 h corresponding to CCCCn1c(=O)c2c(ncn2C(C)C)c2ccccc21 [Compound 4, hydrochloride]
Response given: > 300 mg/kg

Challenge: Return value of LD50 at 168 h for input CCCCn1c(=O)c2c(ncn2CCC)c2ccccc21.Cl , no commentary.
Response given: > 300 mg/kg
